Origin of values: patent US10526337B2

# Test target: PI3 Kinase (p110δ/p85α) (h) (Homo sapiens, UniProt O00329)
# Construct: endogenous in cells
# Sequence (O00329 whole entry): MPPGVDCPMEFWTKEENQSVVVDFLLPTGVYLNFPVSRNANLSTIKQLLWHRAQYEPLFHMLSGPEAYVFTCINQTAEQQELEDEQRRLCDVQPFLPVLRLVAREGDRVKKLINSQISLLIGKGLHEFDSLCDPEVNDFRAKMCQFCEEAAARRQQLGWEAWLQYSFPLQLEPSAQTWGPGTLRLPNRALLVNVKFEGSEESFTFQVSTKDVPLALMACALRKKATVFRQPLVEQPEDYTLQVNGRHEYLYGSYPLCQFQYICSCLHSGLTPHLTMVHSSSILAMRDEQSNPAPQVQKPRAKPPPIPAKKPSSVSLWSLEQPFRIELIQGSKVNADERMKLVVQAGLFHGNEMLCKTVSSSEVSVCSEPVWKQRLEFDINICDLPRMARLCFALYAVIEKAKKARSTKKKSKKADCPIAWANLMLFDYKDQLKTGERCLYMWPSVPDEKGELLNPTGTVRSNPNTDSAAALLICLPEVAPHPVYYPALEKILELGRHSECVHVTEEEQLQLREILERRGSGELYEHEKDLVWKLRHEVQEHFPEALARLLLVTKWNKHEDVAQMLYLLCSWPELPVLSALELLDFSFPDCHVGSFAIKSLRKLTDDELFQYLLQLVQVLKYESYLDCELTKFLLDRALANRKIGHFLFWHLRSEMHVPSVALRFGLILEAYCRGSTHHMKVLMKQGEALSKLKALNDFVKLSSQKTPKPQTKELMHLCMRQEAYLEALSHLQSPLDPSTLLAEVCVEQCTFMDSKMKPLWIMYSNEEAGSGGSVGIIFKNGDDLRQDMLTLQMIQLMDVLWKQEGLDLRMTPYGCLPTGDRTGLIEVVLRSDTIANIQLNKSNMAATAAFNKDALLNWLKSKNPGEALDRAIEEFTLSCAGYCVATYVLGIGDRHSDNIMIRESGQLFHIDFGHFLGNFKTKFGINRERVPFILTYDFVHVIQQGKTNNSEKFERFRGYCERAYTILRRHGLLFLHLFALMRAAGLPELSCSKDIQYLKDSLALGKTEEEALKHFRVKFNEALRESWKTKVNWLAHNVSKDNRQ
# Sequence (P27986 whole entry partner): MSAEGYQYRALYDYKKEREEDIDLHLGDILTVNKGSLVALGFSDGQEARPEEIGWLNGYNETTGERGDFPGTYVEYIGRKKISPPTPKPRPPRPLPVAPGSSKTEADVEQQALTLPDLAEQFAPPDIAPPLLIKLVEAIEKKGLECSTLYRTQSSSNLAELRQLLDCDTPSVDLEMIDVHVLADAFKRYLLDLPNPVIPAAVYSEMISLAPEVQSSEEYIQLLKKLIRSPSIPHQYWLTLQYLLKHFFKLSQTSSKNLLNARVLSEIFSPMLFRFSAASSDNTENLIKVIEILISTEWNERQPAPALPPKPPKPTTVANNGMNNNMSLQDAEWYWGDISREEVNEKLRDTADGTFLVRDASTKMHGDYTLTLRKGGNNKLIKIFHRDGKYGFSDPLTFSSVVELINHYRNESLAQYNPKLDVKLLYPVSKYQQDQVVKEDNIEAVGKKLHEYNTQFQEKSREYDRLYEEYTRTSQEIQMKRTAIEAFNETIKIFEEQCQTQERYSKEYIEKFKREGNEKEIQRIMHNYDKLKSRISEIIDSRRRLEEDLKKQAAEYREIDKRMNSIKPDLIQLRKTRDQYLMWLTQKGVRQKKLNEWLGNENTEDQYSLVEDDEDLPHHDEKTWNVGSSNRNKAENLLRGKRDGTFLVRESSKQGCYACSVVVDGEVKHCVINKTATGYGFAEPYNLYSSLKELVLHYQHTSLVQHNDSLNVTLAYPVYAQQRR
# Assay: Inhibition of phosphatidylinositol 3-kinase delta (PI3K δ), pAkt Western blotting in IgM-stimulated Raji cells
# Stated conditions: ATP=10 uM, sample concentration=100 nM
Parameter measured: IC50

Past entries and their recorded results:
Report IC50 for Cc1c[nH]c2ncnc(N[C@@H](C)c3cc4cccc(Cl)c4c(=O)n3-c3ccccc3)c2c1=O [Example 17] tested on PI3 Kinase (p110δ/p85α) (h) (Homo sapiens, UniProt O00329). 10 to 500 nM

Would you mind doing C[C@H](Nc1ncnc2[nH]ccc(=O)c12)c1cc2cccc(Cl)c2c(=O)n1-c1ccccc1 [Example 5] as well? < 10 nM

Would you mind doing C[C@H](Nc1ncnc2[nH]cc(Cl)c(=O)c12)c1nc2cccc(Cl)c2c(=O)n1-c1ccccc1 [Example 22] as well? < 10 nM

Would you mind doing CC(Nc1ncnc2[nH]ccc(=O)c12)c1nc2ccc(F)cc2cc1-c1ccccn1 (centres unmarked) [Example 7] as well? < 10 nM

Would you mind doing CN1CNc2nc(N)nc(N3CCC[C@H]3c3nc4cccc(Cl)c4c(=O)n3-c3cccnc3)c2C1=O [Example 56] as well? > 500 nM

Would you mind doing Nc1nc(N2CCC[C@H]2c2nc3cccc(Cl)c3c(=O)n2-c2cccnc2)c2c(=O)nc[nH]c2n1 [Example 91] as well? > 500 nM

Would you mind doing C[C@H](Nc1ncnc2c1C(=O)N(C1CC1)CN2)c1cc2cccc(Cl)c2c(=O)n1-c1ccccc1 [Example 62] as well? > 500 nM

Kindly review the next compound as well.
Report IC50 for C[C@H](Nc1ncnc2[nH]ccc(=O)c12)c1nc2ccc(F)cc2c(=O)n1-c1cccnc1 [Example 28] tested on PI3 Kinase (p110δ/p85α) (h) (Homo sapiens, UniProt O00329). 10 to 500 nM

---

# Test target: PI3 Kinase (p110δ/p85α) (h) (Homo sapiens)
# Construct: endogenous in cells
# Assay: Inhibition of phosphatidylinositol 3-kinase delta (PI3K δ), pAkt Western blotting in IgM-stimulated Raji cells
# Stated conditions: ATP=10 uM, sample concentration=100 nM
Reported values of IC50 for individual entries

Which measured IC50 value corresponds to C[C@H](Nc1ncnc2[nH]ccc(=O)c12)c1c(Cl)c2cccc(Cl)c2c(=O)n1-c1ccccc1 ? < 10 nM

Would you mind doing C[C@H](Nc1ncnc2[nH]cc(F)c(=O)c12)c1cc2cccc(Cl)c2c(=O)n1-c1ccccc1 as well? < 10 nM

Would you mind doing C[C@H](Nc1nc(N)nc2[nH]cnc(=O)c12)c1nn2ccc(Cl)c2c(=O)n1-c1ccccc1 as well? 10 to 500 nM

Would you mind doing C[C@H](Nc1nc(N)nc2c1C(=O)N(C)CN2)c1cc2ccccc2nc1-c1ccccc1 as well? 10 to 500 nM

Would you mind doing C[C@H](Nc1ncnc2c1C(=O)N(C)CN2)c1cc2ccccc2nc1-c1ccccc1 as well? 10 to 500 nM

Continuing:
Which measured IC50 value corresponds to CC[C@H](Nc1nc(N)nc2[nH]cnc(=O)c12)c1nc2cccc(F)c2c(=O)n1-c1ccccc1 ? 10 to 500 nM

Would you mind doing C[C@H](Nc1ncnc2[nH]ccc(=O)c12)c1nc2ccc(F)cc2c(-c2ccccn2)c1-c1ccccc1 as well? 10 to 500 nM
